Molecular target: PAF receptor (Oryctolagus cuniculus, UniProt G1TEI7)
Construct: platelet membranes where prepared by centrifugation and washing; tissue Pel-Freez (Rogers, AR) (whole rabbit blood); host or cells: rabbit platelet membranes
Sequence (G1TEI7 1-342): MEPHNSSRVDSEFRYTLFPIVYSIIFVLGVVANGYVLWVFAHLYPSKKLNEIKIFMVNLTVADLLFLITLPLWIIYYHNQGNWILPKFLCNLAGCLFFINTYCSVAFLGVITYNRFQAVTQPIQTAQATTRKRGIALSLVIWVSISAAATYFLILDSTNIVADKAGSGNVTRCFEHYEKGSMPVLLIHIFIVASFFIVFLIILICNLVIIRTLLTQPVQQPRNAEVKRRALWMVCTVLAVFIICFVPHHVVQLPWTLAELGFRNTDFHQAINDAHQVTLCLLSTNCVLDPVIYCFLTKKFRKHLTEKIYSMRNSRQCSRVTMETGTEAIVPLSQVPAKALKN
Assay: PAF receptor binding assay ([3H]C18-PAF, rabbit platelet membranes)
Conditions: read-out: PAF Receptor Binding Activity K1
Reported log10 Ki values for a set of compounds
property measured: log10 Ki (log10 of the value in nM)

# compound, tgt, property measured, measured value
measured = [
    ("COc1ccc(-c2ccc3c(C(=O)c4ccn5c4C(C)(C)SC5c4cccnc4)c[nH]c3c2)cc1 (stereo not shown)", "PAF receptor (Oryctolagus cuniculus, UniProt G1TEI7)", "log10 Ki", 2.43),
    ("NS(=O)(=O)CCn1cc(C(=O)c2ccn3c2CSC3c2ccc[n+]([O-])c2)c2ccc(-c3ccc(F)cc3)cc21 (stereo not shown)", "PAF receptor (Oryctolagus cuniculus, UniProt G1TEI7)", "log10 Ki", 1.26),
    ("CCNC(=O)n1cc(C(=O)c2ccn3c2CSC3c2cccnc2)c2ccc(-c3ccc(F)cc3)cc21 (stereo not shown)", "PAF receptor (Oryctolagus cuniculus, UniProt G1TEI7)", "log10 Ki", 1.28),
    ("O=C(c1ccn2c1C[S+]([O-])C2c1cccnc1)c1c[nH]c2ccccc12 (stereo not shown)", "PAF receptor (Oryctolagus cuniculus, UniProt G1TEI7)", "log10 Ki", 3.38),
    ("CN(C)C(=O)Cn1cc(C(=O)c2ccn3c2CSC3c2ccc[n+]([O-])c2)c2ccc(-c3ccc(F)cc3)cc21 (stereo not shown)", "PAF receptor (Oryctolagus cuniculus, UniProt G1TEI7)", "log10 Ki", 0.88),
    ("CN(C)C(=O)Cn1cc(C(=O)c2ccn3c2CSC3c2cccnc2)c2ccc(-c3ccc(F)cc3)cc21 (stereo not shown)", "PAF receptor (Oryctolagus cuniculus, UniProt G1TEI7)", "log10 Ki", -0.15),
    ("N#CCn1cc(C(=O)c2ccn3c2CSC3c2cccnc2)c2ccc(-c3ccc(F)cc3)cc21 (stereo not shown)", "PAF receptor (Oryctolagus cuniculus, UniProt G1TEI7)", "log10 Ki", 1.60),
]
